target-of-assay: T1, Cynomolgus CD3 on Cyno CD3+ Jurkat cells (cynomolgus, UniProt Q95LI5 22-198)
T1 construct: whole, on cells; CD3 on cells; also called cCD3
T1 sequence (Q95LI5 22-198): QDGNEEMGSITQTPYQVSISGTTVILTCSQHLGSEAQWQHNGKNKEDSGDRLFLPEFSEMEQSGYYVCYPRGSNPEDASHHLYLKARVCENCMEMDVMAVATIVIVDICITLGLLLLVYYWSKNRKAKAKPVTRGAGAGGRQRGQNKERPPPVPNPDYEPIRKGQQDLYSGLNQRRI
test-protocol: cell binding cCD3, fold over background
reported-property: Cell Binding cCD3 (FOB)
Number only, in FOB; omit the unit.

Challenge: Fill in: Cell Binding cCD3 (FOB) of ADI-46362 (antibody, V domains shown, also called Ab46) VH: QVQLVQSGAEVKKPGASVKVSCKASGFNIKDYYMHWVRQAPGQRPEWIGWIDLENANTVYDAKFQGRVTITRDTSASTAYMELSSLRSEDTAAYYCARDAYGRYFYDVWGQGTLVTVSS VL: DIVMTQSPDSLAVSLGERATINCKSSQSLLNARTGKNYLAWYQQKPGQPPKLLIYWASTRESGVPDRFSGSGSGTDFTLTISSLQAEDVAVYYCVQSYFRRTFGGGTKVEIK is ___
Response given: 95

Challenge: Suppose we examine the binder ADI-45976 (antibody, V domains shown, also called Ab12) VH: QVQLVQSGAEVKKPGASVKVSCKASGFNIKDYYMHWVRQAPGQRLEWIGWIDLENANTVYDAKFQGRVTITRDTSASTAYMELSSLRSEDTAVYYCVRDAYGRYFYDVWGQGTLVTVSS VL: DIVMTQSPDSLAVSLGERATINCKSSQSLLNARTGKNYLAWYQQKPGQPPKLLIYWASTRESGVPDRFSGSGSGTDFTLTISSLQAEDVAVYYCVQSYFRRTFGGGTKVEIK ; what Cell Binding cCD3 (FOB) value has been reported?
Response given: 109

Challenge: Endpoint output: Cell Binding cCD3 (FOB) of ADI-46365 (antibody, V domains shown, also called Ab49) VH: QVQLVQSGAEVKKPGASVKVSCKASGFNIKDYYMHWVRQAPGQRLEWIGWIDLENANTVYDAKFQGRVTITRDTSAGTAHMELSSLRSEDTAVYYCARDAYGRYFYDVWGQGTPVTVSS VL: DIVMTQSPDSLAVSLGERATINCKSSQSLLNARTGKNYLAWYQQKPGQPPKLLIYWASTRESGVPDRFSGSGSGTDFTLTISSLQAEDVAVYYCTQSYFRRTFGGGTKVEIK . Value?
Response given: 84

Challenge: // query Cell Binding cCD3 (FOB) value for entry ADI-46379 (antibody, V domains shown, also called Ab41) VH: QVQLVQSGAEVKKPGASVKVSCKASGFNIKDYYMHWVRQAPGQRLEWIGWIDLENANTVYDAKFQGRVTITRDTSASAAYMELSSLRSEDTAVYYCARDAYGRYFYDVWGQGTLVTVSS VL: DIVMTQSPDSLAVSLGERATINCKSSQSLLNARTGKNYLAWYQQKPGQPPKLLIYWASARESGVPDRFSGSGSGTDFTLTISSLQAEDVAVYYCTQSYFRRTFGGGTKVEIK
Response given: 105

Challenge: Give its Cell Binding cCD3 (FOB) value. Item: ADI-46364 (antibody, V domains shown, also called Ab48) VH: QVQLVQSGAEVKKPGASVKVSCKASGFNIKDYYMHWVRQAPGQRLEWIGWIDLENANTVYDAKLQGRVTITRDTSASTAYMELSSLGSEDTAVYYCARDAYGRYFYDVWGQGTLVTVSS VL: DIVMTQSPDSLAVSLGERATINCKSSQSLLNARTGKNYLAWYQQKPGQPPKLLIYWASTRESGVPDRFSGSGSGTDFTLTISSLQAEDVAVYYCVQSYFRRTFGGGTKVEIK
Response given: 63
